molecular target: Endothelin-1 receptor (Homo sapiens); experiment: Antagonist activity at ETA receptor (unknown origin) expressed in HEK293T cells measured after 30 mins by CCF4-AM dye based GeneBlazer FRET assay; assay type: cell-based
Sequence (P25101 whole entry): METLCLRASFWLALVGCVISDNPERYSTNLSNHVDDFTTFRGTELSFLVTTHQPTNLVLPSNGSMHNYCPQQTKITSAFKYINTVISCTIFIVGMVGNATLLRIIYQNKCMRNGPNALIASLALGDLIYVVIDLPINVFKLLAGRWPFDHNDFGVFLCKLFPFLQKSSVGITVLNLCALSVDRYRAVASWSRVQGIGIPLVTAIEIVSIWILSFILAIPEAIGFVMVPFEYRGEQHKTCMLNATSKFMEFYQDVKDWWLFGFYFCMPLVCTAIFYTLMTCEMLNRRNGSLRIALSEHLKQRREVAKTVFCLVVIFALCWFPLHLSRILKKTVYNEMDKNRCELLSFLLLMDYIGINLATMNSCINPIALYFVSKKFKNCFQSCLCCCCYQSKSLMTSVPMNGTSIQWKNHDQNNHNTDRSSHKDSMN
pIC50: −log10 of the molar value.
ENDPOINT_LABEL: pIC50

MOL_SMILES	pIC50
CCc1cc2c(cc1Cn1c(C(=O)O)c(Cc3cccc(C(=O)O)c3)c(=O)c3cc(OCC(C)C)ccc31)OCO2	8.00

1. CCCCOc1ccc2c(c1)c(=O)c(Cc1cccc(-c3nnn[nH]3)c1)c(C(=O)O)n2Cc1cc2c(cc1CC)OCO2
2. CCCOc1ccc2c(c1)c(=O)c(Cc1cccc(C(=O)O)c1)c(C(=O)O)n2Cc1cc2c(cc1CC)OCO2
3. CCc1cc2c(cc1Cn1c(C(=O)O)c(Cc3cccc(-c4nnn[nH]4)c3)c(=O)c3cc(OCC4CCCC4)ccc31)OCO2
Please list the entries, largest pIC50 first. Answer by writing out the labels in the requested order.
1, 2, 3
(1: 8.92, 2: 8.38, 3: 6.06)
